outcome.measure: melting point

See these solved cases before continuing.
>>> df
                                   compound  readout_value
0                    O=C(c1csnn1)c1cnn[nH]1  170 to 172 °C
1               CCCc1ccc(O)c(-c2cnn[nH]2)c1  138 to 140 °C
2             Clc1cc(Cl)c(-c2c[nH]nn2)cc1Cl  190 to 192 °C
3  OC(COc1ccccc1-c1cnn[nH]1)c1ccccc1 (stereo not drawn)  153 to 155 °C
4                   O=C(c1ccncc1)c1cnn[nH]1  221 to 223 °C

Parameter requested: melting point. Apply to each item below.
1. Clc1cccc(-c2c[nH]nn2)c1OCCc1ccccc1
2. CCCC(=O)Nc1ccc(Cl)cc1-c1nc[nH]n1
3. CCc1ccc(O)c(-c2cnn[nH]2)c1
4. O=C(Nc1ccc(Cl)cc1-c1nc[nH]n1)C1CCC1

96 to 99 °C
156 to 158 °C
71 to 73 °C
201 to 203 °C
